FYI, the data here is from the MegaScale stability set (Tsuboyama et al. 2023).

Exercise: state measured folding stability dG for each of the variants provided.
B1: EHEE_rd4_0086 (parent)
chain: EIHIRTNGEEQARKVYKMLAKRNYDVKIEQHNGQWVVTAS

- Variants of: B1
- ASSAY COMMENT: folding stability dG (cDNA display proteolysis); higher = more stable
- APPLIED CONDITIONS: PBS, room temperature
Answers are plain numbers, in kcal/mol.

Take a look at these entries with their results.
{"RESIDUES": "EIHIRTNGEEQARKVYKMLAKRNYDVKIEQHNGQWNVTAS", "METRIC": "folding stability dG", "RECORDED NUMBER": 0.466}
{"RESIDUES": "EIHIRTNGEEQARKVYKMLAKRNYDVKIEQHNGQWVVEAS", "METRIC": "folding stability dG", "RECORDED NUMBER": 0.543}
{"RESIDUES": "EIHIRTNGEEQARKVYKMLAKRNYDVMIEQHNGQWVVTAS", "METRIC": "folding stability dG", "RECORDED NUMBER": 1.32}
{"RESIDUES": "EIHIRTNGEEQARKVYKMLAKRNYDVKIEQKNGQWVVTAS", "METRIC": "folding stability dG", "RECORDED NUMBER": 2.04}
{"RESIDUES": "EIHIRTNGEEQARKVYKMLAKRNYDVKIEQHNGQWVVTPS", "METRIC": "folding stability dG", "RECORDED NUMBER": 0.297}
{"RESIDUES": "EIHIRTNGEEQARWVYKMLAKRNYDVKIEQHNGQWVVTAS", "METRIC": "folding stability dG", "RECORDED NUMBER": 2.35}
{"RESIDUES": "EIHIRTNGEEQARKIYKMLAKRNYDVKIEQHNGQWVVTAS", "METRIC": "folding stability dG", "RECORDED NUMBER": 2.49}
{"RESIDUES": "EIHIRTNGEEQARKVYKMLAKRNYDYKIEQHNGQWVVTAS", "METRIC": "folding stability dG", "RECORDED NUMBER": -0.299}

input: Quick check: folding stability dG of EIHIRTNGEEQARKVYKMLAKRNYDVKIEQHNGQWVVTMS ?
output: 1.98
